Values were extracted from the PETadex activity labels (doi:10.1016/j.bbalip.2005.11.003).

# Substrate: vinyl butyrate
# condition.description: pH 7; 25 °C
quantity: Km (mM)
The figure you give is taken to be in mM; do not add the unit.

## Input Dear colleague, I am looking for the recorded Km of the following protein: unnamed (protein) MAKKDEHLRKPEWLKIKLNTNENYTGLKKLMRENNLHTVCEEAKCPNIHECWAVRRTATFMILGSVCTRACRFCAVKTGLPTELDLQEPERVADSVALMNLKHAVITAVARDDQKDGGAGIFAETVRAIRRKSPFTTIEVLPSDMGGNYDNLKTLMDTRPDILNHNIETVRRLTPRVRARATYDRSLEFLRRAKEMQPDIPTKSSIMIGLGETKEEIIEVMDDLLANNVDIMAIGQYLQPTKKHLKVQKYYHPDEFAELKEIAMQKGFSHCEAGPLVRSSYHADEQVNEASKKRQAQA
## Output 40

## Input Dear colleague, I am looking for the recorded Km of the following protein: unnamed (protein) MVLKQRANYLGFLIVFFTAFLVEAVPIKRQSNSTVDSLPPLIPSRTSAPSSSPSTTDPEAPAMSRNGPLPSDVETKYGMALNATSYPDSVVQAMSIDGGIRAATSQEINELTYYTTLSANSYCRTVIPGATWDCIHCDATEDLKIIKTWSTLIYDTNAMVARGDSEKTIYIVFRGSSSIRNWIADLTFVPVSYPPVSGTKVHKGFLDSYGEVQNELVATVLDQFKQYPSYKVAVTGHSLGGATALLCALDLYQREEGLSSSNLFLYTQGQPRVGDPAFANYVVSTGIPYRRTVNERDIVPHLPPAAFGFLHAGEEYWITDNSPETVQVCTSDLETSDCSNSIVPFTSVLDHLSYFGINTGLCT
## Output 15

## Input Dear colleague, I am looking for the recorded Km of the following protein: unnamed (protein) MRSSLVLFFVSAWTALASPIRREVSQDLFNQFNLFAQYSAAAYCGKNNDAPAGTNITCTGNACPEVEKADATFLYSFEDSGVGDVTGFLALDNTNKLIVLSFRGSRSIENWIGNLNFDLKEINDICSGCRGHDGFTSSWRSVADTLRQKVEDAVREHPDYRVVFTGHSLGGALATVAGADLRGNGYDIDVFSYGAPRVGNRAFAEFLTVQTGGTLYRITHTNDIVPRLPPREFGYSHSSPEYWIKSGTLVPVTRNDIVKIEGIDATGGNNQPNIPDIPAHLWYFGLIGTCL
## Output 20
